Data origin, for the record: patent US20210198277A1

# System Name: EHMT1 (Homo sapiens, UniProt Q9H9B1)
# Sequence (Q9H9B1 whole entry, species assumed): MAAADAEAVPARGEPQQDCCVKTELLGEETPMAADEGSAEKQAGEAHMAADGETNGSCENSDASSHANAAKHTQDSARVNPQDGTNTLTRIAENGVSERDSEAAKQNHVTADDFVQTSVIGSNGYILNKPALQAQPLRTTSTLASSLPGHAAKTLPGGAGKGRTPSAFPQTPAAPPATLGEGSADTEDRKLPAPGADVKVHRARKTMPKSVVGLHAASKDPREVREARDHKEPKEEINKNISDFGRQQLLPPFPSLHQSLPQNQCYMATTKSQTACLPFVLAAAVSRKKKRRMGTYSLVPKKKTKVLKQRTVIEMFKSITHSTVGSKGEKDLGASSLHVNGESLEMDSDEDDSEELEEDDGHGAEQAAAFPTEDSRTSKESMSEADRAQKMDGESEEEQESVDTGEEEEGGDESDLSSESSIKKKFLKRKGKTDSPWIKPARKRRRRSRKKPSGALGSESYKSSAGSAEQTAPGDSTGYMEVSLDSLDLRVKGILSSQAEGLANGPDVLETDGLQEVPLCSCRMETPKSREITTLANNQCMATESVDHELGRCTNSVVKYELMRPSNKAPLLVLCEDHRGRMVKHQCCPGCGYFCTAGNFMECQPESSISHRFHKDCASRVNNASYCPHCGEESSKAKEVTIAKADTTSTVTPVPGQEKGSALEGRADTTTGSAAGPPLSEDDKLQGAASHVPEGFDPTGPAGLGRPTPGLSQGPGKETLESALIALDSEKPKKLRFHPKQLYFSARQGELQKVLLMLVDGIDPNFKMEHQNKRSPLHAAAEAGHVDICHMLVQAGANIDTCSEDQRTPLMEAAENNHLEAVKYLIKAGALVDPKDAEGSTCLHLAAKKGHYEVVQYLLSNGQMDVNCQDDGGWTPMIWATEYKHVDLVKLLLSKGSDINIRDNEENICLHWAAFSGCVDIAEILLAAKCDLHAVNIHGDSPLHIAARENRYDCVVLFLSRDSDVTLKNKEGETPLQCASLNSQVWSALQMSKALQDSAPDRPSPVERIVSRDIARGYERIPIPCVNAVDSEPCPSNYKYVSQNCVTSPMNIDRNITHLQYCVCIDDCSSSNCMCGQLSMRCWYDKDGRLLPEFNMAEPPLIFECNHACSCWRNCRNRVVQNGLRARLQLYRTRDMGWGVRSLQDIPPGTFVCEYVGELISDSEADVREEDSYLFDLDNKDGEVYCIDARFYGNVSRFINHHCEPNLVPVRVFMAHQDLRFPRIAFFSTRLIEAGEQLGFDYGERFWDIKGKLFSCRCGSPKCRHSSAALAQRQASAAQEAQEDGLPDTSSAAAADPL
# Run Description: EHMT1 enzyme assay on peptide substrate (EHMT1 PEP)
# Type: biochemical
# Reported Conditions: Table VI; read-out: EHMT1 PEP IC50
pIC50: −log10 of the molar value.
Assay Readout: pIC50

// returns reported pIC50 for input CNCCC(C)Oc1cc(Nc2nccc(NC)n2)ccc1OC (stereo not shown) 5.00 to 6.00

Please do the same for CNCCNCc1cc(Nc2nccc(NC)n2)cnc1OC as well. 6.00 to 7.00

# iterate: CCN1CC[C@@H](COc2cc3nc(C)cc(C4CCN(C(C)C)CC4)c3cc2OC)C1 > 7.00

Please answer likewise for CCN1CC[C@@H](COc2cc3nc(C)cc(C4CCN(C)CC4)c3cc2OC)C1 > 7.00

Repeat with CNc1cc(C)nc(Nc2ccc(OC)c(C#CC3CCNC3)c2)n1 (stereo not shown) > 7.00

Entry CNc1cc(C2CCCCC2)c2cc(OC)c(OCCCN3CCCC3)cc2n1 please > 7.00

Query COc1cc2c(C3CCN(C)CC3)nc(-c3cn[nH]c3)nc2cc1OCCCN1CCCC1 next 6.00 to 7.00
